conditions: 302.9 K; 101.33 kPa; Liquid; Pulse-echo method
MEASURED_PARAMETER: speed of sound (m/s)
Write the answer as a number in m/s, unit excluded.

Consider the worked cases shown below.
> print(dat)
                                   compound  measured.parameter  value.reported
1  CC(C)C(=O)[O-].C[NH2+]CCO [2-hydroxy-N-methylethanaminium isobutyrate]      speed of sound          1597.8
2  C[NH2+]CCO.O=C[O-] [2-hydroxy-N-methylethanaminium formate]      speed of sound            1806
3  CCC(=O)[O-].C[NH2+]CCO [2-hydroxy-N-methylethanaminium propionate]      speed of sound          1675.9
4  CCCC(=O)[O-].C[NH2+]CCO [N-methyl-2-hydroxyethylammonium butanoate]      speed of sound          1599.5

Then this compound:
I have this compound here, CCCCC(=O)[O-].C[NH2+]CCO [2-hydroxy-N-methylethanaminium pentanoate] , and I need its recorded speed of sound.
1533.9

* * *

details: 299.4 K; 101.33 kPa; Liquid; Vibrating tube method
mass density: recorded values
Write the answer as a number in kg/m3, unit excluded.

Consider the worked cases shown below.
> print(dat)
                                   compound  measured.parameter  value.reported
1  CCCCC(=O)[O-].C[NH2+]CCO [2-hydroxy-N-methylethanaminium pentanoate]        mass density         1015.35
2  CCCC(=O)[O-].C[NH2+]CCO [N-methyl-2-hydroxyethylammonium butanoate]        mass density         1038.39
3  C[NH2+]CCO.O=C[O-] [2-hydroxy-N-methylethanaminium formate]        mass density         1127.55
4  CCC(=O)[O-].C[NH2+]CCO [2-hydroxy-N-methylethanaminium propionate]        mass density         1070.47

I have this compound here, CC(C)C(=O)[O-].C[NH2+]CCO [2-hydroxy-N-methylethanaminium isobutyrate] , and I need its recorded mass density.
1042.57

I have this compound here, CC(=O)[O-].C[NH2+]CCO [N-methyl-2-hydroxyethylammonium acetate] , and I need its recorded mass density.
1100.08

* * *

conditions: 292.15 K; 101.33 kPa; Liquid; Pulse-echo method
speed of sound: recorded values
Write the answer as a number in m/s, unit excluded.

Consider the worked cases shown below.
> print(dat)
                                   compound  value.reported
1  CCC(=O)[O-].C[NH2+]CCO [2-hydroxy-N-methylethanaminium propionate]          1707.8
2  CC(C)C(=O)[O-].C[NH2+]CCO [2-hydroxy-N-methylethanaminium isobutyrate]          1628.4
3  CCCC(=O)[O-].C[NH2+]CCO [N-methyl-2-hydroxyethylammonium butanoate]          1633.9
4  CCCCC(=O)[O-].C[NH2+]CCO [2-hydroxy-N-methylethanaminium pentanoate]            1568

Then this compound:
I have this compound here, C[NH2+]CCO.O=C[O-] [2-hydroxy-N-methylethanaminium formate] , and I need its recorded speed of sound.
1827

* * *

details: 328.15 K; 101.33 kPa; Liquid; Vibrating tube method
± gives the expanded uncertainty stated by the source.
MEASURED_PARAMETER: mass density

Consider the worked cases shown below.
> print(dat)
                                   compound       value.reported
1  C[NH2+]CCO.O=C[O-] [2-hydroxy-N-methylethanaminium formate]   1111.6 ± 2.2 kg/m3
2  CC(C)C(=O)[O-].C[NH2+]CCO [2-hydroxy-N-methylethanaminium isobutyrate]  1023.67 ± 2.2 kg/m3
3  CCCCC(=O)[O-].C[NH2+]CCO [2-hydroxy-N-methylethanaminium pentanoate]  995.753 ± 2.1 kg/m3

I have this compound here, CC(=O)[O-].C[NH2+]CCO [N-methyl-2-hydroxyethylammonium acetate] , and I need its recorded mass density.
1082.49 ± 2.2 kg/m3

I have this compound here, CCCC(=O)[O-].C[NH2+]CCO [N-methyl-2-hydroxyethylammonium butanoate] , and I need its recorded mass density.
1018.77 ± 2.2 kg/m3

I have this compound here, CCC(=O)[O-].C[NH2+]CCO [2-hydroxy-N-methylethanaminium propionate] , and I need its recorded mass density.
1051.44 ± 2.2 kg/m3
